Form: system (Mu-type opioid receptor (Rattus norvegicus)), quantity (Ki), values below.
Include the unit after the number when you answer.

The examples below pair each entry with its known result.
[[record]]
compound = "CC(C)CC(C)NC(=O)CNC(=O)C(C)(C)NC(=O)[C@@H](N)Cc1ccc(O)cc1 (some centres undefined)"
result = "171 nM"

[[record]]
compound = "CC(C)C[C@@H](C(=O)NCCO)N(C)C(=O)CNC(=O)[C@@H](C)NC(=O)[C@@H](N)Cc1ccc(O)cc1"
result = "116 nM"

[[record]]
compound = "CCN(C(=O)CNC(=O)[C@@H](C)NC(=O)[C@@H](N)Cc1ccc(O)cc1)C(C)CC(C)C (some centres undefined)"
result = "35.5 nM"


Record request: Ki value, item CC(C)CC(C)NC(=O)CNC(=O)[C@@H](C)NC(=O)[C@@H](N)Cc1ccc(O)cc1 (some centres undefined)
17 nM
